# System: high kalium concentration constricted rabbit aorta
# assay.summary: Relaxing effects on vascular smooth muscle constricted by high kalium concentration in vitro
# condition.details: relaxation of rabbit aorta constricted by high kalium solution (K+ 60 mmol/L); mean±SEM, n=5
Listing of entries alongside the reported −logEC50.

- given.smiles: "c1ccc2nc(C3CCN(CCCCn4nnc5ccccc54)CC3)cnc2c1"
  −logEC50: 3.13
- given.smiles: "Cc1ccc2c(C3CCN(CCCn4nnc5ccccc54)CC3)noc2c1"
  −logEC50: 4.09
- given.smiles: "COc1ccc2c(C3CCN(CCCCn4nnc5ccc(C#N)cc54)CC3)noc2c1"
  −logEC50: 3.23
- given.smiles: "COc1ccc2c(C3CCN(CCCn4nnc5ccccc54)CC3)noc2c1"
  −logEC50: 4.12
- given.smiles: "FC(F)(F)c1cccc(C2CCN(CCCOn3cnc4ccccc43)CC2)c1"
  −logEC50: 4.17
